The origin of these recorded values is ChEMBL document CHEMBL1133663.

Tested on: Rattus norvegicus
method: In vivo inhibition of carrageenan-induced air pouch in rats
Assay type: functional
// label = 1 (yes) if ED35 is not less than 2 mg/kg, otherwise 0 (no)

chemical_string	experimental_system	label_class
Cc1ccc(-n2c(-c3ccc(S(N)(=O)=O)cc3)coc2=O)cc1	Rattus norvegicus	0 (no)
NS(=O)(=O)c1ccc(-c2coc(=O)n2-c2ccc(Cl)cc2)cc1	Rattus norvegicus	0 (no)

## Task Hi team, for Cc1ccc(-c2cc(C(F)(F)F)nn2-c2ccc(S(N)(=O)=O)cc2)cc1 , is the recorded ED35 at or above 2 mg/kg?
## Result 1 (yes)

## Task Entry NS(=O)(=O)c1ccc(-c2coc(=O)n2-c2ccc(C(F)(F)F)cc2)cc1 please
## Result 1 (yes)

====

Entries with their measured IC50, system Prostaglandin G/H synthase 1 (Homo sapiens, UniProt P23219):

chemical_string	IC50
NS(=O)(=O)c1ccc(-c2coc(=O)n2-c2ccc(C(F)(F)F)cc2)cc1	> 100 µM

# input for lookup
## Task # IC50 lookup, item NS(=O)(=O)c1ccc(-c2coc(=O)n2-c2ccc(C(=O)O)cc2)cc1
## Result > 100 µM

====

System: Rattus norvegicus
method: In vivo inhibition of adjuvant arthritis in rats
Format: functional
measurement_kind: ED50 (mg/kg)
Numbers only; they are read as mg/kg.

Example entries begin here.
molecule	measurement_kind	meas_value
Cc1ccc(-n2c(-c3ccc(S(N)(=O)=O)cc3)coc2=O)cc1	ED50	0.34
NS(=O)(=O)c1ccc(-c2coc(=O)n2-c2ccc(C(F)(F)F)cc2)cc1	ED50	1

# input for lookup
## Task Observed ED50 on Rattus norvegicus for Cc1ccc(-c2cc(C(F)(F)F)nn2-c2ccc(S(N)(=O)=O)cc2)cc1 [CELECOXIB] , please.
## Result 0.5

====

experimental_system: Prostaglandin G/H synthase 1 (Homo sapiens, UniProt P23219)
Sequence (P23219 whole entry): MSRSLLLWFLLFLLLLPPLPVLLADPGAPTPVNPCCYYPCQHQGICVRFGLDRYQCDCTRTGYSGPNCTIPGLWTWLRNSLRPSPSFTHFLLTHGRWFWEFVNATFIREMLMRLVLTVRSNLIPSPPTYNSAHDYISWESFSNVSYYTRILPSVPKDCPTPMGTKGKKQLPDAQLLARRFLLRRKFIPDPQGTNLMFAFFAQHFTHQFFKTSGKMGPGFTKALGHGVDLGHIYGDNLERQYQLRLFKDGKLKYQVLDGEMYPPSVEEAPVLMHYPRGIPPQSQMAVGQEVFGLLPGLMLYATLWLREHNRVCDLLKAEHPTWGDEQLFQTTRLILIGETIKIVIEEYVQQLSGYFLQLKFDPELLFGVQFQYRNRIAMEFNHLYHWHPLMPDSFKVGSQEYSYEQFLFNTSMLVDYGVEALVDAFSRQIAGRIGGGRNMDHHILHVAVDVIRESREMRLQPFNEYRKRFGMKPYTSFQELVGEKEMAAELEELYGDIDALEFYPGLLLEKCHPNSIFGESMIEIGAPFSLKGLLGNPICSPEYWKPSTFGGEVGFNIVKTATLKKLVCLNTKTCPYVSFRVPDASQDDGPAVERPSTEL
pIC50: −log10 of the molar value.
// label = rule met if pIC50 is not less than 5, otherwise rule not met

# example entries with known answers
chemical_string	label_class
NS(=O)(=O)c1ccc(-c2coc(=O)n2-c2cccc(C(=O)O)c2)cc1	rule not met
CS(=O)(=O)c1ccc(-c2coc(=O)n2-c2ccc(F)cc2F)cc1	rule met
CS(=O)(=O)c1ccc(-c2coc(=O)n2-c2ccc(F)cc2)cc1	rule met
NS(=O)(=O)c1ccc(-c2coc(=O)n2-c2cccc3ccccc23)cc1	rule not met
NS(=O)(=O)c1ccc(-c2coc(=O)n2-c2ccccc2F)cc1	rule not met

## Task Hi team, for Cc1cccc(-n2c(-c3ccc(S(N)(=O)=O)cc3)coc2=O)c1 , is the recorded pIC50 at or above 5?
## Result rule met

====

Test system: Rattus norvegicus
method: In vivo inhibition of adjuvant arthritis in rats
Format: functional
The following molecules are shown together with reported ED50 values.
Numbers only; they are read as mg/kg.

chemical_string	measurement_kind	meas_value
NS(=O)(=O)c1ccc(-c2coc(=O)n2-c2ccccc2)cc1	ED50	0.15
NS(=O)(=O)c1ccc(-c2coc(=O)n2-c2ccc(Cl)cc2)cc1	ED50	0.2
NS(=O)(=O)c1ccc(-c2coc(=O)n2-c2ccc(F)cc2)cc1	ED50	0.6

# input for lookup
## Task # ED50 lookup, item Cc1oc(=O)n(-c2ccc(Cl)c(Cl)c2)c1-c1ccc(S(N)(=O)=O)cc1
## Result 1.6
